# Test system: MCC13 cells (VN-MCC)
# protocolNotes: qHTS cell viability (CellTiter-Glo, 72 h; primary and follow-up small molecule screen)
# Type: cell-based, human
Structures can show the parent of a compound that is named as a salt.
Mark Satisfied only when Area under the dose-response curve (AUC) MCC13 Replicate 2 stays strictly below 400. Values equal to the cut-off are Not satisfied.

Completed entries (count: 5):
O=C1c2c(O)ccc(O)c2C(=O)c2c(NCCNCCO)ccc(NCCNCCO)c21 [Mitoxantrone dihydrochloride] ... Satisfied
COc1cc(O)c2c(c1)oc(=O)c1c3cc(O)c(O)cc3oc21 [WEDELOLACTONE] ... Not satisfied
CO[C@@H]1C[C@@H](C[C@H]2CC[C@H](C)[C@H]([C@@H](C)C(=O)[O-])O2)O[C@]2(O[C@](C)([C@H]3CC[C@@](C)([C@@H]4O[C@@H]([C@H]5O[C@@](O)(CO)[C@H](C)C[C@@H]5C)C[C@@H]4C)O3)C[C@H]2C)[C@@H]1C.[Na+] [Nigericin sodium salt] ... Not satisfied
COC[C@H]1OC(=O)c2coc3c2[C@@]1(C)C1=C(C3=O)[C@@H]2CC[C@H](O)[C@@]2(C)C[C@H]1OC(C)=O [17_-hydroxy Wortmannin] ... Not satisfied
CC[n+]1c(-c2ccccc2)c2cc(N)ccc2c2ccc(N)cc21 [Ethidium bromide] ... Not satisfied

// switching to the query compound
**Q:** Consider the compound CC[C@@]1(O)C(=O)OCc2c1cc1n(c2=O)Cc2cc3cc(O)ccc3nc2-1 [10-hydroxycamptothecin] . Is its Area under the dose-response curve (AUC) MCC13 Replicate 2 strictly less than 400?
**A:** Satisfied

---

Recorded measurements of VN-MCC_Avg_AUC, one per entry
# Tested on: VN-MCC cell lines (MCC13, MCC26, UISO)
# protocolNotes: qHTS cell viability, VN-MCC cell lines as a group (mean AUC, VN.MCC.avg)
# Assay type: cell-based, human
# protocolConditions: NPC library; mean AUC of VN-MCC cell lines
Counter-ions that a name gives are not always drawn.
Lab note: write the figure by itself, no unit.

COc1cc(/C=C2\CCC/C(=C\c3ccc(O)c(OC)c3)C2=O)ccc1O ... 437.803
CC[N+](CC)(CC)CCOC(=O)C(C1CCCC1)C1CCCC1 [Diponium bromide] ... 499.413
Cn1c(=O)c2c(ncn2CCO)n(C)c1=O ... 441.93
O=S1(=O)OC(c2ccc(O)cc2)(c2ccc(O)cc2)c2ccccc21 ... 416.577
Nc1ccc(C(=O)NCC(=O)O)cc1 ... 412.211

**Q:** I am curious: what VN-MCC_Avg_AUC value has been reported for `N=C(N)NN=C(/C=C/c1ccc([N+](=O)[O-])o1)/C=C/c1ccc([N+](=O)[O-])o1` ?
**A:** 384.368

**Q:** Data request, read-out VN-MCC_Avg_AUC, for CCCCOc1ccc(C(=O)CCN2CCCCC2)cc1 [Dyclonine hydrochloride]
**A:** 475.619

**Q:** Reported VN-MCC_Avg_AUC, compound CN(CC1(C)CCCO1)S(=O)(=O)c1ccc(Cl)c(S(N)(=O)=O)c1 (centres unmarked) [Mefruside] : ____
**A:** 490.65

---

# Test system: MKL-2 cells (VP-MCC)
# protocolNotes: qHTS cell viability (CellTiter-Glo, 72 h; primary and follow-up small molecule screen)
# Type: cell-based, human
# protocolConditions: MIPE library, 11-point DRC, sheet S2E
Known MKL2_AUC of a selection of compounds
Provide a numeric answer; units are not to be included.

CC#C[C@]1(O)CC[C@H]2[C@@H]3CCC4=CC(=O)CCC4=C3[C@@H](c3ccc(N(C)C)cc3)C[C@@]21C [Mifepristone] ... 266.162
O=C(CCCCCCC(=O)Nc1ccccc1)NO [Suberoylanilide hydroxamic acid] ... 344.522
C=Cc1c(C)c2cc3nc(cc4[nH]c(cc5nc(cc1[nH]2)C(C)=C5CCC(=O)O)c(CCC(=O)OC)c4C)[C@@]1(C)C3=CC=C(C(=O)OC)[C@H]1C(=O)OC [Verteporfin] ... 217.219
CN(C)CC[C@H](CSc1ccccc1)Nc1ccc(S(=O)(=O)NC(=O)c2ccc(N3CCN(Cc4ccccc4-c4ccc(Cl)cc4)CC3)cc2)cc1[N+](=O)[O-] [ABT-737] ... 288.506
CC(=O)O[C@]1(C(C)=O)CC[C@H]2[C@@H]3C=C(C)C4=CC(=O)CC[C@]4(C)[C@H]3CC[C@@]21C [Megestrol acetate] ... 396.638
O=C(CCCCCCC(=O)Nc1cccnc1)NO [Pyroxamide] ... 371.322
CC1(C)CCC(c2ccc(Cl)cc2)=C(CN2CCN(c3ccc(C(=O)N[S+](=O)([O-])c4ccc(N[C@H](CCN5CCOCC5)CSc5ccccc5)c([S+](=O)([O-])C(F)(F)F)c4)cc3)CC2)C1 [ABT-263 (Navitoclax)] ... 277.677

**Q:** Given the compound `COc1ccc(C(=O)CC(=O)c2ccc(C(C)(C)C)cc2)cc1` , what is its reported MKL2_AUC?
**A:** 314.76

---

In this section, each of the compounds is paired with its reported Percent viability.
# Test system: WAGA cells (VP-MCC)
# protocolNotes: qHTS cell viability (CellTiter-Glo, 72 h; primary and follow-up small molecule screen)
# Assay type: cell-based, human
# protocolConditions: WAGA, 72h, Log (M) -5.81358
Put your answer as a value accompanied by its unit after it.

Check out these entries, answers already filled in.
Cc1cc(Nc2cc(N3CCN(C)CC3)nc(Sc3ccc(NC(=O)C4CC4)cc3)n2)[nH]n1 [Tozasertib, reference compound] ... 31.7%
CCn1cc(-c2ccnc3[nH]c(-c4cccc(CN(C)C)c4)cc23)c(-c2ccc(NC(=O)N(C)C)cc2)n1 [GSK-1070916A, reference compound] ... 12.6%

**Q:** # lookup: Percent viability of CCS(=O)(=O)c1cccc(-c2cc(C(=O)NC3CCN(C)CC3)c(C)c3[nH]c4ncc(C)cc4c23)c1 [TAK-901, reference compound]
**A:** 27.2%

**Q:** Recorded Percent viability for O=C(Nc1cccc(Cl)c1)Nc1ncc(CCNc2ncnc3ccsc23)s1 [SNS-314, reference compound] , please?
**A:** 32.8%

---

Each entry below lists one item and its recorded Area under the dose-response curve (AUC) UISO Replicate 1 value.
# Test system: UISO cells (VN-MCC)
# protocolNotes: qHTS cell viability (CellTiter-Glo, 72 h; primary and follow-up small molecule screen)
# Format: cell-based, human
# protocolConditions: follow-up screen; UISO; replicate 1
I only need the number, thanks.

Cc1ccc(NC(=O)c2cccc(N(C)C)c2)cc1NC(=O)c1ccc(O)cc1 [ZM-336372] ... 448.6
COc1ccc(OC)c(-c2nnc3ccc(-c4ccc(OC)c(O[C@@H]5CCOC5)c4)nn23)c1 [NCGC00168459-01] ... 435.8
COc1ccc([C@]2(C#N)CC[C@@H](C(=O)O)CC2)cc1OC1CCCC1 [Cilomilast] ... 447.9

Here is the next item to consider.
**Q:** # query: Area under the dose-response curve (AUC) UISO Replicate 1 | item CC#C[C@]1(O)CC[C@H]2[C@@H]3CCC4=CC(=O)CCC4=C3[C@@H](c3ccc(N(C)C)cc3)C[C@@]21C [Mifepristone] | system: UISO cells (VN-MCC)
**A:** 472.5

---

# Test system: MCC13 cells (VN-MCC)
# protocolNotes: qHTS cell viability (CellTiter-Glo, 72 h; primary and follow-up small molecule screen)
# Type: cell-based, human
# protocolConditions: MCC13, 72h, Log (M) -5.33646
This section presents molecules with their documented Percent viability values.
Only the number, expressed in %, is required.

Take a look at these entries with their results.
O=C(Nc1cccc(Cl)c1)Nc1ncc(CCNc2ncnc3ccsc23)s1 [SNS-314, reference compound] ... 49.0
Cc1cc(Nc2cc(N3CCN(C)CC3)nc(Sc3ccc(NC(=O)C4CC4)cc3)n2)[nH]n1 [Tozasertib, reference compound] ... 14.5

**Q:** Given the molecule CCn1cc(-c2ccnc3[nH]c(-c4cccc(CN(C)C)c4)cc23)c(-c2ccc(NC(=O)N(C)C)cc2)n1 [GSK-1070916A, reference compound] , what is its reported Percent viability?
**A:** 0.9

**Q:** Which Percent viability is listed for CCS(=O)(=O)c1cccc(-c2cc(C(=O)NC3CCN(C)CC3)c(C)c3[nH]c4ncc(C)cc4c23)c1 [TAK-901, reference compound] ?
**A:** 26.1

---

# Tested on: MKL-2 cells (VP-MCC)
# protocolNotes: qHTS cell viability (CellTiter-Glo, 72 h; primary and follow-up small molecule screen)
# Assay type: cell-based, human
# protocolConditions: area under the dose-response curve, MKL-2 cells; AUC<450 = reduced viability
Structures can show the parent of a compound that is named as a salt.
Measured MKL2_AUC values are reported for all entries that follow.
Lab note: jot down the number only; don't add units.

**Q:** Param item = C[C@H](CCC(=O)O)[C@H]1CC[C@H]2[C@@H]3[C@H](O)C[C@@H]4C[C@H](O)CC[C@]4(C)[C@H]3CC[C@]12C [Chenodeoxycholic acid] ; retrieve measured MKL2_AUC.
**A:** 427.388

**Q:** // lookup MKL2_AUC for `COc1ccc(C(=O)CC(=O)c2ccc(C(C)(C)C)cc2)cc1`
**A:** 386.921

**Q:** Could you tell me which MKL2_AUC is on file for CCCC(=O)OC[C@@H](OC(=O)CCC)[C@@H](OC(=O)CCC)[C@H](Cn1c2nc(=O)[nH]c(=O)c-2nc2cc(C)c(C)cc21)OC(=O)CCC [Riboflavin tetrabutyrate] ?
**A:** 430.163

**Q:** Which measured MKL2_AUC value corresponds to C[N+]1(CC2COC(c3ccccc3)(C3CCCCC3)O2)CCCCC1 (stereo not shown) [Oxapium iodide] ?
**A:** 426.411

**Q:** Quick one: MKL2_AUC for CN[C@@H]1[C@H](O)[C@H](NC)[C@H]2O[C@@]3(O)C(=O)C[C@@H](C)O[C@H]3O[C@@H]2[C@H]1O.Cl.Cl [Spectinomycin dihydrochloride] ?
**A:** 429.069

**Q:** // query MKL2_AUC value for entry CCOc1cc(N)c(Cl)cc1C(=O)NCC1CN(Cc2ccc(F)cc2)CCO1 (stereo not shown) [Mosapride citrate]
**A:** 377.067

**Q:** Data request, read-out MKL2_AUC, for CCOC(=O)[C@H](CCc1ccccc1)N[C@@H](C)C(=O)N1CCC[C@H]1C(=O)O [Enalapril maleate]
**A:** 341.505

Values from paper PMC11822212
